The measurements presented in this section are drawn from patent US9133128B2.

Below: a set of entries, each annotated with reported % MDCK-MDR transport (apical to basal).
- Tested on: MDCK-MDR
- Experiment notes: MDCK-MDR transport (apical to basal)
- Format: in vitro ADME
- Cond: Table 4
Your answer should be a plain number; it is taken to be in %.

[
  {
    "Compound": "Cc1c(C(=O)N2CCC(C(N)=O)(c3ccccc3)CC2)nn(-c2ccc(Cl)cc2Cl)c1-c1ccc(Cl)cc1 [Cl, phenyl, C(O)NH2]",
    "% MDCK-MDR transport (apical to basal), %": 8.1
  }
]

Turning now to a further record.
Which % MDCK-MDR transport (apical to basal) is listed for Cc1c(C(=O)N2CCC(NS(C)(=O)=O)(c3ccccc3)CC2)nn(-c2ccc(Cl)cc2Cl)c1-c1ccc(Cl)cc1 [Cl, phenyl, NHSO2CH3] ? 3.14
